- Assay Method Text: Cytotoxicity in human CNE2 cells by MTT assay
- Type: functional, cell-based
- Cond: CNE-2
Quantity: pIC50
Just the number, please; pIC50 means minus log10 of the concentration in mol/L.

# pIC50 (compound: "CN(C)CCCNc1c2ccccc2nc2c1[nH]c1ccccc12" ) is 6.62

====

- Test system: K562
- Assay Method Text: Cytotoxicity in human K562 cells by MTT assay
- Format: functional, cell-based
Quantity: IC50 (nM)
All answers are understood in nM, so give the number only.

response.value for "CN(C)CCCNc1c2ccccc2nc2c1[nH]c1ccccc12" (field: IC50) = 240

====

- System: Bel-7402
- Assay Method Text: Cytotoxicity in human Bel7402 cells by MTT assay
- Type: functional, cell-based
Quantity: IC50
Param answer (str): number followed by unit.

Param item: "CN(C)CCCNc1c2ccccc2nc2c1[nH]c1ccccc12" ; param system: Bel-7402; output IC50: 240 nM
